Assay system FLT3 (Homo sapiens, UniProt P36888); read-out recorded as IC50.

Some molecules with known IC50 results, for comparison:
{"SUBSTANCE SMILES": "C[C@@H](CF)Nc1ncc2c(OC3CCOCC3)ncc([C@H]3CC[C@H](O)CC3)c2n1", "QUANTITY MEASURED": "IC50", "VALUE OBSERVED": "1000 to 10000 nM"}
{"SUBSTANCE SMILES": "C[C@@H](CO)Nc1ncc2c(OC3CCOCC3)ncc([C@H]3CC[C@H](O)CC3)c2n1", "QUANTITY MEASURED": "IC50", "VALUE OBSERVED": "1000 to 10000 nM"}

**Q:** Lab note: need IC50 with FLT3 (Homo sapiens, UniProt P36888) for entry `C[C@@H](CC(F)(F)F)Nc1ncc2c(O[C@@H]3C[C@H]4CC[C@@H](C3)N4C[C@@H]3CCCO3)ncc([C@H]3CC[C@H](O)CC3)c2n1` , please look it up.
Sequence (P36888 27-993): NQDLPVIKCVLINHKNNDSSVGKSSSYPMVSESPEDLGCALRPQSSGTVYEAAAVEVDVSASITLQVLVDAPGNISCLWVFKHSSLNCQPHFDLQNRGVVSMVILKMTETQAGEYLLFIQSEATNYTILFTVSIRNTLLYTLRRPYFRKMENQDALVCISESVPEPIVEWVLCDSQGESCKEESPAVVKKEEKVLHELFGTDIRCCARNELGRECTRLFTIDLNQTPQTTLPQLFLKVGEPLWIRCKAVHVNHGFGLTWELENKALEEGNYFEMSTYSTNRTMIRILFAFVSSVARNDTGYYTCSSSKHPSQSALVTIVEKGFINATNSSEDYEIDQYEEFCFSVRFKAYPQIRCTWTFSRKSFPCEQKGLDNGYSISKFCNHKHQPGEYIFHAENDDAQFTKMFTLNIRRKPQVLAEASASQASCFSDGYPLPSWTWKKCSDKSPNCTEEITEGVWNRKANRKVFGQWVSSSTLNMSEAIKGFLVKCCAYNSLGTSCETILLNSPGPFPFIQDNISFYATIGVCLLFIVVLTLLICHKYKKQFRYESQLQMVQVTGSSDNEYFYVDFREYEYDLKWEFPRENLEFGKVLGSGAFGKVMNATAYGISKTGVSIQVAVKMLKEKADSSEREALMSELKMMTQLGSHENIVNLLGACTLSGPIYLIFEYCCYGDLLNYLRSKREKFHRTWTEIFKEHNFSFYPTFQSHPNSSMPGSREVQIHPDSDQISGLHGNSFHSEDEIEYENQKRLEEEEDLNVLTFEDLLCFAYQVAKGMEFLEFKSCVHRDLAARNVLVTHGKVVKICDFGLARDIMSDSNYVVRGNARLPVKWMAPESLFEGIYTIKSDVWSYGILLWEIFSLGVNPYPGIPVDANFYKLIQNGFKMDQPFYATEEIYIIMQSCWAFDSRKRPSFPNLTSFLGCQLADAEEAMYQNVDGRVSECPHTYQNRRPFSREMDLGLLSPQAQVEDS
**A:** ≤ 100 nM

**Q:** Another: `CC[C@H](C)Nc1ncc2c(NC34CCC(O)(CC3)CC4)ncc([C@H]3CC[C@H](O)CC3)c2n1`
**A:** 100 to 1000 nM

====

Molecular target: AXL (Homo sapiens, UniProt P30530)
Sequence (P30530 26-894): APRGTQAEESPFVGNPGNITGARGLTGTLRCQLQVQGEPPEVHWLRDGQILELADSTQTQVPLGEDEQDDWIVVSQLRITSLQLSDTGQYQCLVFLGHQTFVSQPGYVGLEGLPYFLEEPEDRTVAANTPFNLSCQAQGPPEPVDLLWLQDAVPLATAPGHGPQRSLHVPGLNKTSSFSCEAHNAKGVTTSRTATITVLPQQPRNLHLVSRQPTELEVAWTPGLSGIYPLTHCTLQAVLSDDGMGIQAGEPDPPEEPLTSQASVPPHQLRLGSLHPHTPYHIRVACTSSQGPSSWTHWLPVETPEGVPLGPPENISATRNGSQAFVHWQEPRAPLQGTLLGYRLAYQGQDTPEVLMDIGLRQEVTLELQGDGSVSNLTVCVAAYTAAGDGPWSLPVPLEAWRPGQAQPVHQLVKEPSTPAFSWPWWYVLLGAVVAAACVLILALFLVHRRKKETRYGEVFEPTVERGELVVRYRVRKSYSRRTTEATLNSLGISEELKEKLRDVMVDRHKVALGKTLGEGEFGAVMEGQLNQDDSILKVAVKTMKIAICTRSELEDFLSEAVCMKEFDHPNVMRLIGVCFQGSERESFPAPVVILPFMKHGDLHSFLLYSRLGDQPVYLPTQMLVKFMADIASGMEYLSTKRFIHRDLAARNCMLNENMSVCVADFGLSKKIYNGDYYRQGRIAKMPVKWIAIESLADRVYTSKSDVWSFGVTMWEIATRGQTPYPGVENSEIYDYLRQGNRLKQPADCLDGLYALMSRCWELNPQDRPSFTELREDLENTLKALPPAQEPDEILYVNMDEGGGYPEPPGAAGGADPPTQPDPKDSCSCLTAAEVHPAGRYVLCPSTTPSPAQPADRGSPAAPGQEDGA
pIC50: −log10 of the molar value.
QUANTITY MEASURED: pIC50

Some compounds with known pIC50 results, for comparison:
{"COMPOUND": "CCC[C@H](C)Nc1ncc2c(=O)n(C3CCNCC3)cc([C@H]3CC[C@H](O)CC3)c2n1", "pIC50": "6.00 to 7.00"}
{"COMPOUND": "CC[C@H](C)Nc1ncc2c(O[C@H]3CC[C@@H](N(C)C)C3)ncc([C@H]3CC[C@H](O)CC3)c2n1", "pIC50": "6.00 to 7.00"}

**Q:** Any idea what its pIC50 is? The compound is `C[C@@H](CO)Nc1ncc2c(OC3CCOCC3)ncc([C@H]3CC[C@H](O)CC3)c2n1`
**A:** 5.00 to 6.00

**Q:** Another: CCCC(C)Nc1ncc2c(O[C@@H]3CCCN(C)C3)ncc([C@H]3CC[C@H](O)CC3)c2n1 (stereo partly shown)
**A:** 5.00 to 6.00

====

Target: MERTK (Homo sapiens)
Sequence (Q12866 21-999): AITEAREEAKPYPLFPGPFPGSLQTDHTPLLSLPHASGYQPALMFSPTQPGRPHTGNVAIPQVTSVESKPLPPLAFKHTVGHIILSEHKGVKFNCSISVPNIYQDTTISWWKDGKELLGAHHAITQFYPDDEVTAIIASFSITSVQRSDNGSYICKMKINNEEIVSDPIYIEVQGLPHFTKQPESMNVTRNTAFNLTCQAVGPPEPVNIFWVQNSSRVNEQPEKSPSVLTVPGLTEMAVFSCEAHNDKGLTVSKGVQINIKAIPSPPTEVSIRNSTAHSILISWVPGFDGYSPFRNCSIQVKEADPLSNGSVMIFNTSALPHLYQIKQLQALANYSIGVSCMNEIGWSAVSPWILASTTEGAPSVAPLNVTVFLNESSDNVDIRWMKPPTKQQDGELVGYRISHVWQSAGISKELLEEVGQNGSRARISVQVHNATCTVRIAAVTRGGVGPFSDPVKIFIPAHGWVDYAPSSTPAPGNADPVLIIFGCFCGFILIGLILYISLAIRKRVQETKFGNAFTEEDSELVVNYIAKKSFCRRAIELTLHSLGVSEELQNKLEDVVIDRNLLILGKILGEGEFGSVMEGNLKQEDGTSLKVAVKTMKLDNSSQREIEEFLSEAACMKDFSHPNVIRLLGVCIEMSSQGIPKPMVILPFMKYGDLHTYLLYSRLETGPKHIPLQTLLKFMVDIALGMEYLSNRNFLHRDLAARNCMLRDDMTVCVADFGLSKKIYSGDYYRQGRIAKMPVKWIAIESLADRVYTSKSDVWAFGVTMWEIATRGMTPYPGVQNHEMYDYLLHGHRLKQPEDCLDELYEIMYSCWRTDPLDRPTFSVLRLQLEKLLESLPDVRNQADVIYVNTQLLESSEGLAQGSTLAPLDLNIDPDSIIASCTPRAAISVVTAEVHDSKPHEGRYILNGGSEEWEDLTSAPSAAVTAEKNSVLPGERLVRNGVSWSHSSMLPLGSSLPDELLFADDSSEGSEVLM
Assay: TR-FRET kinase activity assay, MERTK
Type: biochemical
Settings: ratio calculated as FLT3 IC50/Mer IC50
Procedure: IC50 values for compound inhibition of AXL, FLT3, MERTK and TYRO3 activity were determined using a TR-FRET activity assay. […] Activity assays were performed in a 384-well, small volume, black microplates in an active enzyme volume of 10 uL and final developed volume of 20 uL. […] Plates are read in a PHERASTAR® plate reader. Data are analyzed in GraphPad PRISM.
Counter-ions that a name gives are not always drawn.
QUANTITY MEASURED: Mer/Flt3 ratio (FLT3 IC50/Mer IC50)

Some compounds with known Mer/Flt3 ratio (FLT3 IC50/Mer IC50) results, for comparison:
{"COMPOUND": "COCCN1CCC(Oc2ncc([C@H]3CC[C@H](O)CC3)c3nc(N[C@@H](C)CC(F)(F)F)ncc23)CC1", "VALUE OBSERVED": "+++ (a ratio of >100)"}
{"COMPOUND": "CC[C@H](C)Nc1ncc2c(NC3CCOCC3)ncc([C@H]3CC[C@H](O)CC3)c2n1", "VALUE OBSERVED": "+++ (a ratio of >100)"}
{"COMPOUND": "C[C@@H](CC(F)(F)F)Nc1ncc2c(OC3CC(C)(C)N(C[C@@H]4CCCO4)C(C)(C)C3)ncc([C@H]3CC[C@H](O)CC3)c2n1", "VALUE OBSERVED": "+++ (a ratio of >100)"}
{"COMPOUND": "COC[C@H](C)Nc1ncc2c(Nc3ccncc3)ncc([C@H]3CC[C@H](O)CC3)c2n1", "VALUE OBSERVED": "+++ (a ratio of >100)"}
{"COMPOUND": "CCCC(C)Nc1ncc2c(=O)n(C3CCN(C(C)=O)CC3)cc([C@H]3CC[C@H](O)CC3)c2n1 (some centres unmarked) [Compound 128, hydrochloride]", "VALUE OBSERVED": "+++ (a ratio of >100)"}
{"COMPOUND": "CNS(=O)(=O)N1CCC(c2cnc(OC3CCOCC3)c3cnc(N[C@@H](C)COC)nc23)CC1", "VALUE OBSERVED": "+++ (a ratio of >100)"}
{"COMPOUND": "COC[C@H](C)Nc1ncc2c(O[C@@H]3CCN(C)C(C)(C)C3)ncc([C@H]3CC[C@H](O)CC3)c2n1", "VALUE OBSERVED": "+++ (a ratio of >100)"}
{"COMPOUND": "CC[C@H](C)Nc1ncc2c(=O)n(C[C@@H]3COCCN3C)cc([C@H]3CC[C@H](O)CC3)c2n1", "VALUE OBSERVED": "+++ (a ratio of >100)"}
{"COMPOUND": "COC[C@H](C)Nc1ncc2c(Nc3ccnc(C)c3)ncc([C@H]3CC[C@H](O)CC3)c2n1", "VALUE OBSERVED": "+++ (a ratio of >100)"}
{"COMPOUND": "CCC1(Nc2ncc3c(OC4CCOCC4)ncc([C@H]4CC[C@H](O)CC4)c3n2)CC1", "VALUE OBSERVED": "+++ (a ratio of >100)"}

**Q:** Any idea what its Mer/Flt3 ratio (FLT3 IC50/Mer IC50) is? The compound is `COC[C@H](C)Nc1ncc2c(OC3CCOCC3)ncc([C@H]3CC[C@@](C)(O)CC3)c2n1`
**A:** +++ (a ratio of >100)

**Q:** Another: CC[C@H](C)Nc1ncc2c(OC3C[C@H]4CC[C@@H](C3)O4)ncc([C@H]3CC[C@H](O)CC3)c2n1 (some centres unmarked) [Compound 237]
**A:** +++ (a ratio of >100)

**Q:** Another: `COC[C@H](C)Nc1ncc2c(O[C@H]3C[C@@H](O)C3)ncc([C@H]3CC[C@@](C)(O)CC3)c2n1`
**A:** +++ (a ratio of >100)

**Q:** Another: `COCCN1[C@@H]2CC[C@H]1C[C@H](Oc1ncc([C@H]3CC[C@H](O)CC3)c3nc(N[C@@H](C)CC(F)(F)F)ncc13)C2`
**A:** +++ (a ratio of >100)

**Q:** Another: `COC[C@H](C)Nc1ncc2c(C)ncc([C@H]3CC[C@H](O)CC3)c2n1`
**A:** +++ (a ratio of >100)

**Q:** Another: `C[C@H](Nc1ncc2c(O[C@H]3C[C@@H](O)C3)ncc([C@H]3CC[C@H](O)CC3)c2n1)C(F)F`
**A:** +++ (a ratio of >100)

**Q:** Another: `C[C@@H](Nc1ncc2c(OC3CCOCC3)ncc([C@H]3CC[C@H](O)CC3)c2n1)C(F)F`
**A:** +++ (a ratio of >100)

**Q:** Another: CCCC(C)Nc1ncc2c(N3CCC[C@H](N(C)C)C3)ncc([C@H]3CC[C@H](O)CC3)c2n1 (some centres unmarked)
**A:** +++ (a ratio of >100)

**Q:** Another: `C[C@H](Nc1ncc2c(OC3CCOCC3)ncc([C@H]3CC[C@H](O)CC3)c2n1)C(F)F`
**A:** +++ (a ratio of >100)

**Q:** Another: `COC[C@H](C)Nc1ncc2c(OC3CCOCC3)ncc([C@H]3CC[C@H](NC(C)=O)CC3)c2n1`
**A:** +++ (a ratio of >100)
